Biological target: Arginase-2, mitochondrial (Homo sapiens)
Sequence (whole entry): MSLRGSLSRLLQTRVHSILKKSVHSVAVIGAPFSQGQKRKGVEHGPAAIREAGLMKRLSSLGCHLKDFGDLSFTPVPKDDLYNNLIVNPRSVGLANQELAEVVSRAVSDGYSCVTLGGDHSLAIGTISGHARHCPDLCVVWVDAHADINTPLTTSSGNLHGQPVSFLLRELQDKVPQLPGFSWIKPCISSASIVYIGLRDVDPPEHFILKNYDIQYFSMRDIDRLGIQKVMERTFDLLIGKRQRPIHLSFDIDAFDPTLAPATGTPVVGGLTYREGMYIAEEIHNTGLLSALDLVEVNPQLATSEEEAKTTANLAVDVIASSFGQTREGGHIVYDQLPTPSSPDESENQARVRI
Assay: in vitro enzyme assay to detect the production of urea directly proportional to the activity of Arginase II
Assay type: functional
Set-up: scale not given: in the data most compounds retested in dose-response had high values
Settings: 33.3 µM
Value kind: Percent Effect (%)
Numbers only, in %.

Example entries and their recorded answers appear below.
- CC(=O)NCCNC(=O)c1sc(-c2ccc(C)cc2C)nc1C: 3.51
- NC(=O)C1CCN(C(=O)c2cccc(CN3CCOCC3)c2)CC1: 2.21
- Cc1ccc(-c2nnc(CN3CCOC(Cn4cccn4)C3)o2)cc1 (stereo not given): 3.42
- O=C(NCc1ccco1)[C@H]1C[C@H]2OCC[C@H]2N(C(=O)c2ccncc2)C1: -50
- Cc1nn2cccnc2c1C(=O)N1CCCC(Nc2ccccc2)C1 (stereo not given): 7.54

Provide reported Percent Effect for each item, in the same order as listed.
1. Cc1cc(C2CCCN(CCCS(=O)(=O)c3ccccc3)C2)n[nH]1 (stereo not given)
2. CN(Cc1ccccn1)C1COC2(CCN(Cc3nccs3)CC2)C1 (stereo not given)
3. Cc1cnn(CCNCc2ccc(F)cc2Cl)c1

6.46
-57.5
0.554

Provide reported Percent Effect for each item, in the same order as listed.
1. CC(C)N1CCC(Cc2cnc(-c3cccc(C(=O)O)c3)cn2)C1 (stereo not given)
2. CC(C)NC(=O)Nc1ccc(CS(=O)(=O)C(C)(C)C)cc1

1. 1.62
2. -2.37

Taken from ChEMBL document CHEMBL3988442.
